pIC50: −log10 of the molar value.
Endpoint: pIC50. System: Wee1 (h) (Homo sapiens, UniProt P30291). Items follow.
Sequence (P30291 whole entry): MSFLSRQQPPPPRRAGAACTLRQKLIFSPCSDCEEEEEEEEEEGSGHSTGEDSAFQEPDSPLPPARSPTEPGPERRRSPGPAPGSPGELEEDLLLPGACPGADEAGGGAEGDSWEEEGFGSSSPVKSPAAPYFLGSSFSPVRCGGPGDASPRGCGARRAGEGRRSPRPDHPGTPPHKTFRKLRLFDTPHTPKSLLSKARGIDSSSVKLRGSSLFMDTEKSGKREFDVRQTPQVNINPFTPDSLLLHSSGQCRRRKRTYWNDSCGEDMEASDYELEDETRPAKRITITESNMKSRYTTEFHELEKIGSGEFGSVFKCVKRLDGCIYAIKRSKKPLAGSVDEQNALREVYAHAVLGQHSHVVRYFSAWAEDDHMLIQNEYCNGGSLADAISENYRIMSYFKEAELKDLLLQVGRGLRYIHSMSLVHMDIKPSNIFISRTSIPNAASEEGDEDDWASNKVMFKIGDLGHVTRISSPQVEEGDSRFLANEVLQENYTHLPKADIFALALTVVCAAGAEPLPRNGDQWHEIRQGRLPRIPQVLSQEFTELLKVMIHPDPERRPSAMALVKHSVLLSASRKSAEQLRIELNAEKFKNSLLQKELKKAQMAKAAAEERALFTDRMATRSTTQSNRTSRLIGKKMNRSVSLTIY
metric: pIC50

[
  {
    "chemical_string": "Cc1cc(Nc2ncc3c(n2)N2CCN=C2N(c2c(Cl)cccc2Cl)C3=O)cc(F)c1C1CCN(C)CC1",
    "experimental_value": 7.59
  }
]

[P] Cc1cc(Nc2ncc3c(n2)N2CCN=C2N(c2c(Cl)cccc2Cl)C3=O)ccc1N1C[C@@H](C)N[C@@H](C)C1
[Q] Cc1cc(Nc2ncc3c(n2)N2CCN=C2N(c2c(Cl)cccc2Cl)C3=O)ccc1C1CCNCC1
Between item P and item Q , which reported pIC50 is smaller? # respond with the chosen item's label
P

Data provenance: patent US20240010655A1
